System: LNZTA3WT4 (Low Grade Glioma)
test: Bliss excess, mean over the matrix (fraction); higher = more synergy
property-name: Bliss excess
The answer should be a number; do not append a unit.

- Cn1cnc2c(F)c(Nc3ccc(Br)cc3Cl)c(C(=O)NOCCO)cc21 [Selumetinib] + CC(C)n1c(=O)n(C)c2cnc3cc(F)c(-c4ccc(OCCCN5CCCCC5)nc4)cc3c21 [AZD1390] (first compound max 10 µM, 7x7, partner max 0.3 µM): -0.0324

# ---- query molecule ----
Report Bliss excess for NC1(C(=O)N[C@@H](CCO)c2ccc(Cl)cc2)CCN(c2ncnc3[nH]ccc23)CC1 [Capivasertib] + C[C@@H]1COCCN1C2=NC(=NC(=C2)C3(CC3)[S@](=N)(=O)C)C4=C5C=CNC5=NC=C4 [AZD6738] (first compound max 10 µM, 7x7, partner max 10 µM) -0.027

###

System: TGBC1TKB (Biliary Tract Carcinoma)
test: Bliss excess, mean over the matrix (fraction); higher = more synergy
property-name: Bliss excess
The answer should be a number; do not append a unit.

- COc1cc2ncnc(Nc3ccc(F)c(Cl)c3)c2cc1OCCCN1CCOCC1 [Gefitinib] + CC(C)n1c(=O)n(C)c2cnc3cc(F)c(-c4ccc(OCCCN5CCCCC5)nc4)cc3c21 [AZD1390] (first compound max 10 µM, 7x7, partner max 0.3 µM): -0.0264

Report Bliss excess for CN(CCO)CC[C@H](CSc1ccccc1)Nc1ccc(S(=O)(=O)NC(=O)c2ccc(N3CCC([C@@H](O)c4ccccc4-c4ccc(Cl)cc4)CC3)cc2)cc1S(=O)(=O)C(F)(F)F [AZD4320] + Nc1ccn([C@@H]2O[C@H](CO)[C@@H](O)C2(F)F)c(=O)n1 [Gemcitabine] (first compound max 1 µM, 7x7, partner max 0.3 µM) -0.0139

Report Bliss excess for CS(=O)(=O)CCNCc1ccc(-c2ccc3ncnc(Nc4ccc(OCc5cccc(F)c5)c(Cl)c4)c3c2)o1 [Lapatinib] + NC1(c2ccc(-c3nc4ccn5c(=O)[nH]nc5c4cc3-c3ccccc3)cc2)CCC1 [MK-2206] (first compound max 10 µM, 7x7, partner max 10 µM) 0.0079

###

Tested on: NUGC-4 (Gastric Carcinoma)
test: combination Emax (second highest fraction inhibited in the dose matrix, 72 h); higher = more inhibition; extreme values may be limits of the assay
Label rule, in plain words: combination Emax of 0.4 and up is MET, under 0.4 is NOT MET.

• COc1cccc(OCCCN)c1-c1cc(Nc2cnc(C#N)cn2)n[nH]1 [Prexasertib] + O=C(c1cc(Cc2n[nH]c(=O)c3ccccc23)ccc1F)N1CCN(C(=O)C2CC2)CC1 [Olaparib] (first compound max 1 µM, 7x7, partner max 10 µM) = MET
• Cc1cc2ncnn2cc1Nc1ncc2c(n1)n(C1CCOCC1)c(=O)n2C [AZD7648] + O=C(c1cc(Cc2n[nH]c(=O)c3ccccc23)ccc1F)N1CCN(C(=O)C2CC2)CC1 [Olaparib] (first compound max 10 µM, 7x7, partner max 10 µM) = NOT MET
• COc1cccc(OCCCN)c1-c1cc(Nc2cnc(C#N)cn2)n[nH]1 [Prexasertib] + C=CCn1c(=O)c2cnc(Nc3ccc(N4CCN(C)CC4)cc3)nc2n1-c1cccc(C(C)(C)O)n1 [AZD1775] (first compound max 1 µM, partner max 1 µM) = MET
• NC1(C(=O)N[C@@H](CCO)c2ccc(Cl)cc2)CCN(c2ncnc3[nH]ccc23)CC1 [Capivasertib] + C[C@@H]1COCCN1C2=NC(=NC(=C2)C3(CC3)[S@](=N)(=O)C)C4=C5C=CNC5=NC=C4 [AZD6738] (first compound max 10 µM, 7x7, partner max 10 µM) = MET

API: above_or_equal(metric=combination Emax, cutoff=0.4) for item C[C@@H](c1ccc2nccn2c1)n1nnc2ncc(-c3cnn(C)c3)nc21 [Savolitinib] + CC1(C)CCC(CN2CCN(c3ccc(C(=O)NS(=O)(=O)c4ccc(NCC5CCOCC5)c([N+](=O)[O-])c4)c(Oc4cnc5[nH]ccc5c4)c3)CC2)=C(c2ccc(Cl)cc2)C1 [Venetoclax] (first compound max 1 µM, 7x7, partner max 1 µM) NOT MET

API: above_or_equal(metric=combination Emax, cutoff=0.4) for item CN(CCO)CC[C@H](CSc1ccccc1)Nc1ccc(S(=O)(=O)NC(=O)c2ccc(N3CCC([C@@H](O)c4ccccc4-c4ccc(Cl)cc4)CC3)cc2)cc1S(=O)(=O)C(F)(F)F [AZD4320] + CCN(CCO)CCCOc1ccc2c(Nc3cc(CC(=O)Nc4cccc(F)c4)[nH]n3)ncnc2c1 [AZD2811] (first compound max 1 µM, 7x7, partner max 1 µM) NOT MET

API: above_or_equal(metric=combination Emax, cutoff=0.4) for item COc1cccc(OCCCN)c1-c1cc(Nc2cnc(C#N)cn2)n[nH]1 [Prexasertib] + Cc1cc2ncnn2cc1Nc1ncc2c(n1)n(C1CCOCC1)c(=O)n2C [AZD7648] (first compound max 1 µM, 7x7, partner max 10 µM) MET

###

Test system: HuCCT1 (Biliary Tract Carcinoma)
test: combination Emax (second highest fraction inhibited in the dose matrix, 72 h); higher = more inhibition; extreme values may be limits of the assay
Attribute: combination Emax
The answer should be a number; do not append a unit.

- COc1cccc(OCCCN)c1-c1cc(Nc2cnc(C#N)cn2)n[nH]1 [Prexasertib] + CN(C)CCCOc1ccc(-c2ccc3ncc4c(c3c2)n(C2CCOCC2)c(=O)n4C)cn1 [AZD0156] (first compound max 1 µM, 7x7, partner max 1 µM): 0.819

Report combination Emax for CN(CCO)CC[C@H](CSc1ccccc1)Nc1ccc(S(=O)(=O)NC(=O)c2ccc(N3CCC([C@@H](O)c4ccccc4-c4ccc(Cl)cc4)CC3)cc2)cc1S(=O)(=O)C(F)(F)F [AZD4320] + CS(=O)(=O)CCNCc1ccc(-c2ccc3ncnc(Nc4ccc(OCc5cccc(F)c5)c(Cl)c4)c3c2)o1 [Lapatinib] (first compound max 1 µM, 7x7, partner max 10 µM) 0.615

Report combination Emax for CN(CCO)CC[C@H](CSc1ccccc1)Nc1ccc(S(=O)(=O)NC(=O)c2ccc(N3CCC([C@@H](O)c4ccccc4-c4ccc(Cl)cc4)CC3)cc2)cc1S(=O)(=O)C(F)(F)F [AZD4320] + CN(C)CCCOc1ccc(-c2ccc3ncc4c(c3c2)n(C2CCOCC2)c(=O)n4C)cn1 [AZD0156] (first compound max 1 µM, 7x7, partner max 1 µM) 0.251

###

Test system: SNU-449 (Hepatocellular Carcinoma)
test: Bliss excess, mean over the matrix (fraction); higher = more synergy
Attribute: Bliss excess
The answer should be a number; do not append a unit.

- NC1(C(=O)N[C@@H](CCO)c2ccc(Cl)cc2)CCN(c2ncnc3[nH]ccc23)CC1 [Capivasertib] + COc1nnc2ccc(N3CCC(c4ccc(OCCN5CCN(C)C(=O)[C@H]5C)cc4)CC3)nn12 [AZD5153] (first compound max 10 µM, 7x7, partner max 1 µM): 0.0058
- O=C(c1cc(Cc2n[nH]c(=O)c3ccccc23)ccc1F)N1CCN(C(=O)C2CC2)CC1 [Olaparib] + CC1(C)CCC(CN2CCN(c3ccc(C(=O)NS(=O)(=O)c4ccc(NCC5CCOCC5)c([N+](=O)[O-])c4)c(Oc4cnc5[nH]ccc5c4)c3)CC2)=C(c2ccc(Cl)cc2)C1 [Venetoclax] (first compound max 10 µM, 7x7, partner max 1 µM): -0.0418

Report Bliss excess for Cc1cc2ncnn2cc1Nc1ncc2c(n1)n(C1CCOCC1)c(=O)n2C [AZD7648] + O=C(c1cc(Cc2n[nH]c(=O)c3ccccc23)ccc1F)N1CCN(C(=O)C2CC2)CC1 [Olaparib] (first compound max 10 µM, 7x7, partner max 10 µM) -0.0525

###

System: SNU-16 (Gastric Carcinoma)
test: Bliss excess, mean over the matrix (fraction); higher = more synergy
Attribute: Bliss excess

Look over these answered cases.
• Cc1cc2ncnn2cc1Nc1ncc2c(n1)n(C1CCOCC1)c(=O)n2C [AZD7648] + COc1cc([C@@H]2c3cc4c(cc3[C@@H](O[C@@H]3O[C@@H]5CO[C@@H](C)O[C@H]5[C@H](O)[C@H]3O)[C@H]3COC(=O)[C@H]23)OCO4)cc(OC)c1O [Etoposide] (first compound max 10 µM, 7x7, partner max 10 µM) = 0.0953
• NC1(C(=O)N[C@@H](CCO)c2ccc(Cl)cc2)CCN(c2ncnc3[nH]ccc23)CC1 [Capivasertib] + CC(=O)c1c(C)c2cnc(Nc3ccc(N4CCNCC4)cn3)nc2n(C2CCCC2)c1=O [Palbociclib] (first compound max 10 µM, 7x7, partner max 10 µM) = 0.0129

# ---- query compound ----
Report Bliss excess for Cc1c2c(nn1C)CSCc1cc(n(C)n1)CSc1cc(c3ccccc3c1)OCCCc1c(C(=O)O)n(C)c3c-2c(Cl)ccc13 [AZD5991] + Cn1cnc2c(F)c(Nc3ccc(Br)cc3Cl)c(C(=O)NOCCO)cc21 [Selumetinib] (first compound max 1 µM, 7x7, partner max 3 µM) 0.0143
